Reported growth values for a set of molecules
system: MDA-MB-231 breast; test: NCI-60 one-dose screen, 48 h (100 = growth as untreated, 0 = no growth, -100 = all killed); settings: 10 µM unless noted
This is part of a sample that, as a whole, favours compounds with a hit. Of some 83,000 tested, about 20% had one in any assay.
observable: growth (%)

molecule	result
COC(=O)c1cc(-c2ccc(OC)cc2)[nH]c1N/N=C/c1c(Cl)cccc1Cl	7.56
Cc1ccccc1Cn1cnc2ccc(-c3cc(NC(=O)c4ccc(NC5CCN(C)CC5)cc4)n[nH]3)cc21	61.3
COC(C(=O)[C@@H](O)[C@@H](C)O)[C@@H]1Cc2cc3cc(O[C@H]4C[C@@H](O[C@H]5C[C@@H](O)[C@H](O)C(C)O5)[C@H](O)C(C)O4)c(C)c(O)c3c(O)c2C(=O)[C@H]1O[C@H]1C[C@@H](O[C@H]2C[C@@H](O[C@H]3C[C@@H](O)[C@H](OC)C(C)O3)[C@@H](O)C(C)O2)[C@H](O)C(C)O1 (stereo partly drawn)	17.2

* * *

System: OVCAR-4 ovarian
Assay: NCI-60 one-dose screen, 48 h (100 = growth as untreated, 0 = no growth, -100 = all killed)
Conditions: 10 µM unless noted
Method: Growth inhibition of the OVCAR-4 human tumor cell line is measured as a screen for anti-cancer activity. Cells are grown in 96 well plates and exposed to the test compound for 48 hours. Compounds are tested at a single concentration, which is 10^-5 M for most compounds. The reported endpoint is percent growth (GI% or GIPRCNT), where numbers from 0 - 100% represent growth inhibition, and numbers from -100% - 0 represent cell death. For example, a value of 40 represents 60% growth inhibition. […]
About 83,000 compounds went through this panel and 20% of them were active in at least one assay; those are over-represented in the sample as a whole. The source made the active and inactive calls. How the source made its calls: active means growth percent below 10; inactive means the rest.

molecule	growth
O=S(=O)(Nc1cc(Br)c(O)c2ccccc12)c1ccc(F)cc1	-97.5% (active)
O=S(=O)(NCCCNc1nccc(-c2c(-c3ccc(F)c(O)c3)nc3occn23)n1)c1ccccc1	104% (inactive)
O=C(O)c1[nH]c(=O)[nH]c(=O)c1[N+](=O)[O-]	122% (inactive)
COc1ccc(CC(C#N)c2cc3ccccc3[nH]2)cc1 (stereo not given)	95.4% (inactive)
CC(C)OC(=O)c1ccc2[nH]c(O)c(C(=Nc3ccc(N(C)C(=O)CN4CCN(C)CC4)cc3)c3ccccc3)c2c1	-72.3% (active)
CC(C)n1cnc2c(=S)nc[nH]c21	124% (inactive)
Cc1cc2c(O)c(-c3cc(Cl)ccc3Cl)c3sc(=O)oc3c2cc1C	24.5% (inactive)
CCNc1cc(-c2cccc(OC(F)(F)F)c2)nc2ccc(N3CCCC3)cc12	14.5% (inactive)
O=C1c2c(c3c4ccc(Br)cc4oc3c3[nH]c4ccccc4c23)C(=O)N1O	66% (inactive)
C#CCOc1ccc2ncnc(Nc3cccc(NC(=O)C=C)c3)c2c1	76% (inactive)
COc1cc(OC)c2sc(-c3ccc(-n4cncc4-c4ccc(OC)c(OC)c4)cc3)nc2c1	52.9% (inactive)
O=C(Nc1nc2ccc(F)cc2s1)c1cccnc1Nc1ccc(Cl)cc1	-13.1% (active)
CN(CCn1sc(=O)n(Cc2ccccc2)c1=O)Cc1ccc2c(Cl)cc(Cl)c(O)c2n1	59.3% (inactive)
COc1cccc(CNc2ncnc3c2ncn3C2OC(CO)C(O)C2O)c1O (stereo not given)	11.3% (inactive)
CN(C)CCCn1c2c(c3ncccc3c1=O)C(=O)c1ccccc1-2	61.8% (inactive)
O=C1C(Cl)=C(Oc2ccccc2)C(=O)c2ccccc21	106% (inactive)
O=C1c2ccc3c4ccc5c6c(ccc(c7ccc(c2c37)C(=O)N1CCC[P+](c1ccccc1)(c1ccccc1)c1ccccc1)c64)C(=O)N(CCC[P+](c1ccccc1)(c1ccccc1)c1ccccc1)C5=O	75.9% (inactive)
N#CC1=C(c2ccc(Cl)cc2)Nc2c(c(-c3ccc(Cl)cc3)nn2-c2ccccc2)C12C(=O)Nc1ccc(Cl)cc12 (stereo not given)	41.8% (inactive)
Cc1c(-n2nnc(-c3nc4ccccc4s3)c2N)c(=O)n(-c2ccccc2)n1C	105% (inactive)
CNC(=O)c1cc(Oc2ccc3nc(NC(C)=O)sc3c2)ccn1	95.9% (inactive)

* * *

test system: NCI-H226 lung; experiment: NCI-60 one-dose screen, 48 h (100 = growth as untreated, 0 = no growth, -100 = all killed); details: 10 µM unless noted
The panel holds about 83,000 compounds, 20% with a hit somewhere; the sample as a whole holds those more often.
Classification field. Basis: growth. Definitions: label 0 = under 80%, label 1 = from 80% up to 90%, label 2 = 90% and over

record_smiles	class
O=C(CCc1nnc(Cn2cnc3nc[nH]c3c2=O)o1)c1nc2ncccc2[nH]1	label 2
COc1ccc(C(=O)Nc2ncc(Cc3ccc(F)cc3)s2)cc1	label 0
CCCCNC(=O)Oc1ccc(/C(=C(/CC)Cc2ccccc2)c2ccc(OCCN3CCCCCC3)cc2)cc1	label 1
Clc1ccc(CNc2c3ccccc3nc3ccccc23)cc1	label 0
O=C1c2cccnc2C(=O)c2c1c(C(=O)NCCn1ccnc1)c1ccccn21	label 0
CCNC(=O)c1[nH]cc(-c2ccccc2)c1-c1cc(OC)c2c(c1OC)OCO2	label 1
O=C1/C(=C/c2ccc(Cl)cc2)COc2ccc(O)cc21	label 2
Cc1ccc(NC(=S)NNC(=S)NNc2ccccc2)cc1C	label 2

* * *

System: LOX IMVI melanoma
Assay: NCI-60 one-dose screen, 48 h
Settings: 10 µM unless noted
Protocol: Growth inhibition of the LOX IMVI human tumor cell line is measured as a screen for anti-cancer activity. Cells are grown in 96 well plates and exposed to the test compound for 48 hours. Compounds are tested at a single concentration, which is 10^-5 M for most compounds. The reported endpoint is percent growth (GI% or GIPRCNT), where numbers from 0 - 100% represent growth inhibition, and numbers from -100% - 0 represent cell death. For example, a value of 40 represents 60% growth inhibition. […]
The panel holds about 83,000 compounds, 20% with a hit somewhere; the sample as a whole holds those more often. Active and inactive are the calls of the source. The calls were made as follows: active = growth percent below 10; inactive = the rest.
Classes used: 1 = active, 0 = inactive

compound	class
Cn1cccc1C(=O)C1C(c2cccc([N+](=O)[O-])c2)C2C3CCCCC3CN2C12C(=O)Nc1ccc(Cl)cc12 (stereo not given)	0
O=S(=O)(Nc1ccc(Cl)cc1)c1ccc(-c2cnc(C3CC3)o2)cc1	0
Cc1cc(Cl)ccc1NC(=O)c1cc2ccccc2cc1O	0
CS(=O)(=O)Nc1cc(-c2ccc3ncnc(Nc4c(Cl)ccc5c4OCO5)c3c2)cnc1Cl	1
CC(=O)n1nc(C(=O)OC(C)C)c2cc(C)c(C)cc21	0
CN(Cc1ccc(C(F)(F)F)cc1)CC(O)C(=O)Nc1ccc(Cl)cc1 (stereo not given)	1
Cc1ccc(Sc2nnc(/N=C3\C(=O)Nc4ccccc43)s2)cc1	0
COc1ccc2nc3ccc(OC)cc3c(SCCCN)c2c1	0
COc1ccc(-c2nc(SCC(C)C)nc(N/N=C\c3ccc(F)cc3)c2C#N)cc1	0
COc1ccc(C(=O)Nc2ncc(Cc3cccc(Cl)c3)s2)cc1OC	1

* * *

tested on: NCI-H226 lung; test: NCI-60 one-dose screen, 48 h; settings: 10 µM unless noted
This is part of a sample that, as a whole, favours compounds with a hit. Of some 83,000 tested, about 20% had one in any assay. Active and inactive are the calls of the source. Rule for the calls: active = growth percent below 10; inactive = the rest.
Classes used: y (active), n (inactive)

compound	class
C=CCn1c(SCC(=O)Nc2ccc(C(=O)/C=C/c3cc4cc(OC)ccc4nc3Cl)cc2)nnc1-c1ccc(Br)cc1	n
Cn1cc(-c2csc(-c3ccc(Cl)cc3)n2)c2cccnc21	y
CC(C)N1CN2C(=S)NC3C2N(C1)C(=S)N3C (stereo not given)	n
N#Cc1c(-c2ccc(Cl)cc2)nc(NN=Cc2cccc(O)c2)nc1N1CCOCC1	n
CCn1c(=S)sc2c(Nc3ccc(F)cc3)nc(-c3cccnc3)nc21	n
C/C(Nc1ccc(Cl)c(Cl)c1)=C1\CCOC1=O	n
CCn1cc(C(=O)N/N=C/c2cccs2)c(=O)c2cc(F)c(N3CCNC(C)C3)c(F)c21 (stereo not given)	n
CC(C)NC1CCC(Nc2ccnc3cc(Cl)ccc23)CC1 (stereo not given)	n
Cc1ccc2c3c(c(=O)[nH]c2c1)C1(C(C#N)=C(N)O3)c2cc(Br)ccc2-c2ccc(Br)cc21	y
N#C/C(=C\c1ccc(-c2ccc(Cl)cc2)o1)C(=O)Nc1ncc(Cc2ccc(Cl)cc2)s1	n

* * *

system: SF-295 CNS; assay: NCI-60 one-dose screen, 48 h (100 = growth as untreated, 0 = no growth, -100 = all killed); conditions: 10 µM unless noted
This is part of a sample that, as a whole, favours compounds with a hit. Of some 83,000 tested, about 20% had one in any assay.
Reported growth values for a set of compounds

compound	growth (%)
CNC(=O)c1cc(Oc2ccc3nc(NC(C)=O)sc3c2)ccn1	95.2
CCN1CCN(Cc2cn(CC(=O)Nc3ccc4c(ccn4Cc4ccccc4)c3)nn2)CC1	105
N#Cc1c(NC(=O)c2ccccc2)sc2c1CCC(=O)C2	21.7
N#Cc1c(-c2ccccc2)cc(-c2ccccc2)n(CCCCCC(=O)Nc2ccccc2N)c1=O	95.9
C[C@]12C=CC(=O)C=C1CCC1C2[C@@H](O)C[C@@]2(C)C1CC[C@]2(O)C(=O)COC(=O)CCC(=O)O (stereo partly drawn)	116
O=C1c2ccc3c4ccc5c6c(ccc(c7ccc(c2c37)C(=O)N1CCC[P+](c1ccccc1)(c1ccccc1)c1ccccc1)c64)C(=O)N(CCC[P+](c1ccccc1)(c1ccccc1)c1ccccc1)C5=O	42.5
O=C(CSc1nc2sc3c(c2c(=O)n1-c1ccccc1)CCCCC3)N/N=C/c1ccc(F)cc1	16.9
COc1ccc(-c2cn(-c3cc(OC)c(OC)c(OC)c3)c(=O)n2C(C)=O)cc1	78.6

This collection of values is drawn from PubChem BioAssay (NCI).
